Each recorded value in this set is attributed to patent US20260191849A1.

system: HT29 cells; experiment: Combined use of compound 257 or AMG650 with PLK1 inhibitor (Volasertib) on HT29 cell viability, 168 h (Biological Example 22); format: cell-based; settings: Homo sapiens, HT-29, 168 h, HT29 cells, 168 h, KIF18A inhibitor Compound 257 80 nM; read-out: Volasertib IC50
Measured Endpoint: IC50 (nM)
One number for each entry, in nM.

[in] What value of IC50 has been recorded for this entry: `CC[C@@H]1C(=O)N(C)c2cnc(Nc3ccc(C(=O)N[C@H]4CC[C@H](N5CCN(CC6CC6)CC5)CC4)cc3OC)nc2N1C(C)C`
[out] 1.4

* * *

system: HCT116 cells; assay: Combined use of compound 257 with PLK1 inhibitor on HCT116 cell viability, 72 h (Biological Example 6); type: cell-based; conditions: Homo sapiens, HCT-116, HCT116 cells, Volasertib 0 nM
Measured Endpoint: IC50

[in] What value of IC50 has been recorded for this entry: `COc1ccc(NC(=O)c2ccc(NS(=O)(=O)CCO)cc2N2CCC3(CC2)CC3)nc1N1CCC(F)(F)CC1`
[out] > 10 µM

* * *

tested on: HT29 cells; assay: Combined use of compound 257, AMG650 or Compound A with PLK1 inhibitor on HT29 cell viability, 168 h (Biological Example 19); format: cell-based; conditions: HT29 cells, KIF18A inhibitor Compound 257 80 nM, read-out: PLK1 inhibitor IC50
Measured Endpoint: pIC50
Numbers only, as −log10 of the molar value.

[in] What value of pIC50 has been recorded for this entry: `COc1cc(C(=O)N[C@H]2CC[C@H](N3CCN(C)CC3)CC2)ccc1Nc1ncc2c(n1)N(C1CCCC1)CC1(CC1)C(=O)N2C`
[out] 8.80

* * *

tested on: HCT116 cells; assay: Combined use of compound 257, AMG650 or Compound A with PLK1 inhibitor on HCT116 cell viability, 168 h (Biological Example 20); type: cell-based; conditions: HCT116 cells, TAK-960 8 nM
pIC50: −log10 of the molar value.
Measured Endpoint: pIC50

CCS(=O)(=O)Nc1ccc2c(c1)C1(CCC3(CC3)CC1)CN2C(=O)c1cccc(S(=O)(=O)NC(C)(C)C)c1 [Compound A] ... < 6.40

Look at each molecule and report its pIC50.
1. Cc1cc(NC(=O)c2ccc(NS(=O)(=O)CCO)cc2N2CCC3(CC2)CC3)nc(N2CCC(F)(F)CC2)n1 [AMG650]
2. COc1ccc(NC(=O)c2ccc(NS(=O)(=O)CCO)cc2N2CCC3(CC2)CC3)nc1N1CCC(F)(F)CC1 [Compound 257]

[out]
["< 6.40", "< 6.40"]

* * *

Exercise: for every item that follows, state its recorded pIC50.
tested on: HCT116 cells; experiment: Combined use of compound 257, AMG650 or Compound A with PLK1 inhibitor on HCT116 cell viability, 168 h (Biological Example 20); type: cell-based; details: HCT116 cells, CYC140 (Plogosertib) 8 nM
pIC50: −log10 of the molar value.

Record excerpt, results attached:
Cc1cc(NC(=O)c2ccc(NS(=O)(=O)CCO)cc2N2CCC3(CC2)CC3)nc(N2CCC(F)(F)CC2)n1 ... < 6.40
COc1ccc(NC(=O)c2ccc(NS(=O)(=O)CCO)cc2N2CCC3(CC2)CC3)nc1N1CCC(F)(F)CC1 ... < 6.40

[in] What value of pIC50 has been recorded for this entry: `CCS(=O)(=O)Nc1ccc2c(c1)C1(CCC3(CC3)CC1)CN2C(=O)c1cccc(S(=O)(=O)NC(C)(C)C)c1`
[out] < 6.40
